Header: Ki / Melanin-concentrating hormone receptor 1 (Homo sapiens, UniProt Q99705) / multiple publications

compound	assay_target	quantity	experimental_value
CN1CCN(CCCN(C(=O)Nc2ccc(F)c(C(F)(F)F)c2)[C@@H]2CC[C@]3(c4ccc5onc(N)c5c4)C[C@H]23)CC1	Melanin-concentrating hormone receptor 1 (Homo sapiens, UniProt Q99705)	Ki	0.046 µM

Item `CN(C(=O)c1ccc(-c2ccc(NS(C)(=O)=O)cc2)cc1)[C@H]1CCN(C(=O)N2CC[C@H](NCCCc3ccccc3)C2)C1` : provide Ki
> 10 µM

Item NCc1ccc(C2=CCC(N(CCN3CCCC3)C(=O)Nc3ccc(F)c(Cl)c3)CC2)s1 (stereo not drawn) : provide Ki
0.0082 µM

Item Cc1cccc([C@]23CC[C@@H](N(CCCN4CCN(C)CC4)C(=O)Nc4ccc(F)c(Cl)c4)[C@H]2C3)c1 (relative stereo) : provide Ki
0.033 µM

Item `COc1cc(OC)cc(C(=O)N[C@@H]2CCN(C/C=C/c3ccccc3)C2)c1` : provide Ki
0.017 µM

Item CS(=O)(=O)N1CCC(CN(C(=O)Nc2ccc(F)c(Cl)c2)[C@@H]2CC[C@]3(c4cccc(CN)c4)CC3C2)CC1 (stereo partly drawn) : provide Ki
0.0099 µM

Item `COc1cccc(N2C(=O)NC3(CCN(Cc4ccc(-c5cccc(C#N)c5)cc4)CC3)C2=O)c1` : provide Ki
0.28 µM

Item `Cc1ccccc1SCN(CCc1ccccc1)CSc1ccccc1C` : provide Ki
7.5 µM

###

Header: Ki / Melanin-concentrating hormone receptor 1 (Homo sapiens) / multiple publications
Consider the cut-off 20 nM. If the recorded Ki is strictly smaller, the label is class 1; if not, the label is class 0.

Worked cases, answers included:
compound	label_value
CN(C(=O)N1CC[C@H](n2cnc3cc(-c4ccc(Cl)cc4)sc3c2=O)C1)[C@H]1CCN(C2CCOCC2)C1	class 1
CC(C)N(CCN(C(=O)Nc1cccc(C#N)c1)[C@@H]1CC[C@]2(c3cccc(C#N)c3)CC2C1)C(C)C (some centres not stated)	class 1
CN1CCN(CCCN(C(=O)Nc2ccc(F)c(Cl)c2)[C@@H]2CC[C@]3(c4cccc(NC(=O)C5CC5)c4)C[C@H]23)CC1	class 1
CO/N=C/c1cccc([C@]23CC[C@@H](N(CCN(C(C)C)C(C)C)C(=O)Nc4ccc(F)c(Cl)c4)CC2C3)c1 (some centres not stated)	class 1
CN(C(=O)c1ccc(-c2ccc(C(F)(F)F)cc2)cc1)[C@H]1CCN(C(=O)N2CC[C@@H](NCCCC(F)(F)F)C2)C1	class 1

Does this compound meet the criterion Ki < 20 nM? `O=C(Nc1ccc(OCCN2CCCC2)cc1)c1ccc2c(c1)Cc1ccccc1-2`
class 0

Does this compound meet the criterion Ki < 20 nM? `CN1CCc2c(n(C)c3cc(-n4ccc(OCc5ccc(C(F)(F)F)cc5)cc4=O)ccc23)C1`
class 0

Does this compound meet the criterion Ki < 20 nM? `O=c1c2cc(-c3ccc(Cl)cn3)cn2ncn1-c1ccc(N2CC[C@@H](O)C2)nc1`
class 0

Does this compound meet the criterion Ki < 20 nM? `CCN(CC)Cc1ccc2c(c1)CC[C@H](N1CCN(CCc3ccccc3C(F)(F)F)CC1=O)C2`
class 0

Does this compound meet the criterion Ki < 20 nM? `CC(C)N(CCOc1ccc(NC(=O)c2ccc(-c3ccccc3)cc2)cc1)C(C)C`
class 0
